Target: eIF2Bα (cteIF2Bα)
Assay: ITC
Format: binding, Thermochaetoides thermophila

compound	target_entity	Kd
Nc1ncnc2c1ncn2[C@@H]1O[C@H](COP(=O)(O)O)[C@@H](O)[C@H]1O [AMP]	eIF2Bα (cteIF2Bα)	10 µM

====

Target: eIF2Bα (cteIF2Bα)
Test: ITC
Assay type: binding, Thermochaetoides thermophila

entry_smiles	Kd / µM
Nc1ccn([C@@H]2O[C@H](COP(=O)(O)O)[C@@H](O)[C@H]2O)c(=O)n1	65
